- protocol-description: self-splicing fitness, log relative to wild type (ln ratio); higher = more splicing; Tetrahymena group I intron in knt gene, E. coli kanamycin selection, DiMSum; sequences stand for … in CUCUCU…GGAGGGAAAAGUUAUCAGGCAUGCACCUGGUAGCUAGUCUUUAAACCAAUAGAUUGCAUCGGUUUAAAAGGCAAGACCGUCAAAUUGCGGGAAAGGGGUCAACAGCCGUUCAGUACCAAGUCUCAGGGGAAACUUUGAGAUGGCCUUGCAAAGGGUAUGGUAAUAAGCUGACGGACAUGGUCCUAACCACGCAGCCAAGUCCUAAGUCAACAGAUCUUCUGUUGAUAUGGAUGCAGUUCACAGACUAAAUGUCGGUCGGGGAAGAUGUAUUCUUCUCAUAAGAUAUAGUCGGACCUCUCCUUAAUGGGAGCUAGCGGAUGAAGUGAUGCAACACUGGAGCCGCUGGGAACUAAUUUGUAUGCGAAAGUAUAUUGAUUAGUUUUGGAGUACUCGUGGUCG;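 note: selection with 25 µg/mL kanamycin versus none on LB agar overnight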
- recorded-conditions: 30 °C
yes means recorded self-splicing fitness (ln) is -3 or above; no means it is below -3.

Request: # bool: self-splicing fitness (ln) of UUGGAGCAAUAUUACGUGGU >= -3
Response: yes

Request: Same read-out for CAUCAGCAAUAUUACGAUAA ?
Response: yes

Request: Same read-out for CCGCAGCAAUAUUACGGUCC ?
Response: no

Request: Same read-out for ACCAAGCAAUAUUACGGCUU ?
Response: no

Request: Same read-out for ACUUAGCAAUAUUACGGAGG ?
Response: yes

Request: Same read-out for AUGAAGCAAUAUUACGGAGA ?
Response: yes

Request: Same read-out for UGCCAGCAAUAUUACGCACU ?
Response: yes

Request: Same read-out for UGCAAGCAAUAUUACGAUCU ?
Response: yes
